Where these numbers come from: the supplement of paper PMC12317010

# protocol description: collision cross section in nitrogen (drift tube, single-field); higher = larger gas-phase ion size;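 note: chemical standards at 10 µM analysed by drift tube IMS-QTOF MS in about 3.95 torr nitrogen, mean of duplicate injections differing ≤1%, mass error below 10 ppm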
# stated conditions: ion type: [M+H]; ion source: APCI; ion mode: Positive
Counter-ions that a name gives are not always drawn.
Entries annotated with measured collision cross section in nitrogen
property name: collision cross section in nitrogen (Å²)

>>> endpoint_result("CCOC(=O)O[C@H](C)OC(=O)c1ccc2c(c1)cc(C(=O)NC1CCN(C(C)C)CC1)n2Cc1cc(-c2ccc(Cl)s2)on1")
268
>>> endpoint_result("c1ccc(CNc2[nH]cnc3ncnc2-3)cc1")
148.7
>>> endpoint_result("COc1cnccc1O [4-Hydroxy-3-methoxypyridine]")
120.7
>>> endpoint_result("N=C1C=CC(=C(c2ccc(N)cc2)c2ccc(N)cc2)C=C1 [C.I. Basic Red 9 monohydrochloride]")
173.3
>>> endpoint_result("C/C(=N\\C#N)N(C)Cc1ccc(Cl)nc1")
155.1
>>> endpoint_result("Nc1cnn(-c2ccccc2)c(=O)c1Cl")
143.6
>>> endpoint_result("CCNc1nc(Cl)nc(NC(C)(C)C)n1")
153.8
>>> endpoint_result("CNC(=C[N+](=O)[O-])NCCSCc1ccc(CN(C)C)o1")
169.2
>>> endpoint_result("c1cncc([C@@H]2CCCCN2)c1")
136.4
>>> endpoint_result("O=c1n(CCCN2CCN(c3cccc(Cl)c3)CC2)nc2ccccn12 [Trazodone hydrochloride]")
192.5
>>> endpoint_result("CCc1c(C)cc(N)c(CC)c1N")
140.6
>>> endpoint_result("Cc1ccc(Nc2ccc(O)c3c2C(=O)c2ccccc2C3=O)cc1")
176.9
>>> endpoint_result("CC1(C)Cc2cccc(N)c2O1 [2,2-Dimethyl-2,3-dihydro-1-benzofuran-7-amine]")
135.8
>>> endpoint_result("CCOc1ccc2c(c1)C(C)=CC(C)(C)N2")
153.1
>>> endpoint_result("CC(Cc1ccc(C(C)(C)C)cc1)CN1C[C@@H](C)O[C@@H](C)C1 (stereo partly drawn)")
173.1
>>> endpoint_result("CCOP(=O)(NC(C)C)Oc1ccc(SC)c(C)c1 (stereo not drawn)")
172.5
>>> endpoint_result("C[C@]12CC[C@@H]3c4ccc(O)cc4C[C@@H](CCCCCCCCCS(=O)CCCC(F)(F)C(F)(F)F)[C@H]3[C@@H]1CC[C@@H]2O (stereo partly drawn)")
243.5
>>> endpoint_result("CC1(C)CCC(=Cc2ccc(Cl)cc2)C1(O)Cn1cncn1 (stereo not drawn)")
181.7

* * *

# protocol description: collision cross section in nitrogen (drift tube, single-field); higher = larger gas-phase ion size
# stated conditions: ion type: [M-H]; ion source: ESI; ion mode: Negative
property name: collision cross section in nitrogen (Å²)

>>> endpoint_result("CCC(C)(CC)C(=O)O")
130.5
>>> endpoint_result("CC(C)(C)CC(C)(C)c1ccc(O)cc1")
157.1
>>> endpoint_result("O=C1NS(=O)(=O)c2ccccc21 [Calcium saccharin hydrate]")
130.5
>>> endpoint_result("CCCCCCCCOC(=O)c1ccc(O)cc1")
169.1
>>> endpoint_result("COc1cc(C=O)ccc1O [4-Hydroxy-3-methoxybenzaldehyde]")
128.1
>>> endpoint_result("N#Cc1ccc(C(c2ccc(C#N)cc2)n2cncn2)cc1")
166.5
>>> endpoint_result("CC(=O)CC(=O)Nc1ccccc1 [Acetoacetanilide]")
138
>>> endpoint_result("CC#Cc1cc(C)nc(Nc2ccccc2)n1")
160.6
>>> endpoint_result("O=C(OCc1ccccc1)c1ccc(O)cc1 [Benzyl 4-hydroxybenzoate]")
158.5
